study system: recombinant soluble homotrimeric HA of A/Anhui/1/05 (H5N1) (Influenza A virus A/Anhui/1/2005(H5N1))
assay summary: trimeric HA microarray, transfection supernatant set 4
condition: remark: other sources report otherwise
Param label: returns criterion met when Trimeric HA Binding: RLU < 20 RLU, returns criterion not met otherwise, including exact equality.

// known answers, use as guide
{"binder": "TCN-536 (5095_N01) (antibody, V domains shown) VH: QVQLQQWGAGLLKPSETLSLTCAVYGGSFSVSGYYWSWIRQPPGRGLEWIGEISHGGSTNYNPSLKSRVTISVDTTKNQFSLRLSSVTAADTAVYYCARGTDPDTEVYCRVGNCAAFDYWGQGSLVTVSS VL: EIILAQSPGTLSLSPGERATLSCRASQFVSTRSLAWYQQRPGQAPRLLIYGASSRATGIPDRFSGSGSGTDFTLTISRLEPEDFAVYYCQHYGYSPRYAFGQGSKVEIK", "class": "criterion met"}
{"binder": "TCN-535 (5246_P19) (antibody, V domains shown) VH: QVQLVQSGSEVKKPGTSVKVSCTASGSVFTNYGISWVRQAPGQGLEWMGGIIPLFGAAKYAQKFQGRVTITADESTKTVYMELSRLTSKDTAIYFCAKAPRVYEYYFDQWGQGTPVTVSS VL: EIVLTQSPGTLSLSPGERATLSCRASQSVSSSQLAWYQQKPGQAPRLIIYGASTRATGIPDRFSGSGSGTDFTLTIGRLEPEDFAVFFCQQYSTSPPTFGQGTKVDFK", "class": "criterion not met"}
{"binder": "TCN-504 (3251_K17) (antibody, V domains shown) VH: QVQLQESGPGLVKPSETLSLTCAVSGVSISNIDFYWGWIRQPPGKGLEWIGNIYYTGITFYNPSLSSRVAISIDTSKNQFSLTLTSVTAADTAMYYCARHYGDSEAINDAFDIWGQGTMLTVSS VL: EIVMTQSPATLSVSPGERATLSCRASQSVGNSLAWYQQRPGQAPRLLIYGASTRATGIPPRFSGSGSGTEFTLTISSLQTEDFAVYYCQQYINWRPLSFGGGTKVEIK", "class": "criterion not met"}

stdin: # TODO verify Trimeric HA Binding: RLU < 20 RLU strictly for this binder: TCN-523 (5248_A17) (antibody, V domains shown) VH: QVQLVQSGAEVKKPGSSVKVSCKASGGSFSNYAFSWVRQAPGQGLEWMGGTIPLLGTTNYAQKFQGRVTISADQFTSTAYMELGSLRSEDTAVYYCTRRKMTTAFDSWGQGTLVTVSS VL: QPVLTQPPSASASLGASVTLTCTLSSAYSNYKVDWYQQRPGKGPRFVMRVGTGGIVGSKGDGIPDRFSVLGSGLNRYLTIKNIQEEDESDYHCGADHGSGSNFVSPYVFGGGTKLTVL
stdout: criterion not met
